- Experimental system: Gal(b1-3)GlcNAc(b1-6)GalNAc
- Assay name: glycan array binding signal (z-score within array); higher = stronger binding
- Settings: glycan notation: IUPAC condensed, linker removed
The sample as a whole holds a higher share of the strongest signals than the screen did.
Assay endpoint: glycan array binding signal (z-score)

Binder	Assay endpoint	Measurement
Cohesin-hMARCO (Homo sapiens) (protein) LDDLDAVRIKVDTVNAKPGDTVRIPVRFSGIPSKGIANCDFVYSYDPNVLEIIEIEPGDIIVDPNPDKSFDTAVYPDRKIIVFLFAEDSGTGAYAITKDGVFATIVAKVKEGAPNGLSVIKFVEVGGFANNDLVEQKTQFFDGGANVGDTTEPATPTTPVTTPTTTDDLDAASVRIVGSSNRGRAEVYYSGTWGTICDDEWQNSDAIVFCRMLGYSKGRALYKVGAGTGQIWLDNVQCRGTESTLWSCTKNSWGHHDCSHEEDAGVECSVHHHHHH	glycan array binding signal (z-score)	1.7
LlpA (Arthrobacter sp) (protein) MGSSHHHHHHSSGLVPRGSHMTLHPETALRPGAAATSPNSRYRLLYQTDGNLVLYGPDGPLWDSGTNGHGAGACIMQADGNLVLYGPNDEYVWDTETDNNPGSRLVIQDDGNAVIYRPDGSPLWATETCQPPGSADSHVLQSGSTLTPTHGIRSANGLYGLLYQTDGNLVFYGPDGPLWDSGTNGRGAGACIMQPDGNLVLYGPHDEYVWDTETDNNPGSRLVIQDDGNAVIYRPDGNPTWVTGTH	glycan array binding signal (z-score)	-0.718
HPAIIITrx (Helix pomatia), Q1KM18 (protein) MLFVTIISLGLLAIVHGQCALKTIAFSAAIDREQTFDANQVVIYDIVITNHGNAYDNSTGLFTAPVDGMYSFQLNLLTIKEKEGWLELVHNGQLKVSVYAKQDSTYDSSSNSVIIKMKEGDRVNVRAHKKSGLFGRDDELYNTFSGHFLSGL	glycan array binding signal (z-score)	-0.368
DC-ASGPR Long (Homo sapiens) (protein) MTRTYENFQYLENKVKVQGFKNGPLPLQSLLQRLRSGPCHLLLSLGLGLLLLVIICVVGFQNSKFQRDLVTLRTDFSNFTSNTVAEIQALTSQGSSLEETIASLKAEVEGFKQERQAGVSELQEHTTQKAHLGHCPHCPSVCVPVHSEMLLRVQQLVQDLKKLTCQVATLNNNASTEGTCCPVNWVEHQDSCYWFSHSGMSWAEAEKYCQLKNAHLVVINSREEQNFVQKYLGSAYTWMGLSDPEGAWKWVDGTDYATGFQNWKPGQPDDWQGHGLGGGEDCAHFHPDGGWNDDVCQRPYHWVCEAGLGQTSQESH	glycan array binding signal (z-score)	5.68
Cohesin-mDCIR (Macaca mulatta) (protein) GLDDLDAVRIKVDTVNAKPGDTVRIPVRFSGIPSKGIANCDFVYSYDPNVLEIIEIEPGDIIVDPNPDKSFDTAVYPDRKIIVFLFAEDSGTGAYAITKDGVFATIVAKVKEGAPNGLSVIKFVEVGGFANNDLVEQKTQFFDGGVNVGDTTEPATPTTPVTTPTTTDDLDAASFQKYSQLLEKMTTKDLVHTTLECVKKNMTTEETAWSCCPKNWKPFSSNCYFISTESASWQKSEKDCARMEAHLLVINTREEQDFIFQNLQEESAYFVGLSDPEGQRHWQWVDRTPYNESSTFWHPHEPSDPDERCVVLNFRKTPKRWGWNDVHCIVHQRSVCEMMKIHLHHHHHH	glycan array binding signal (z-score)	3.16
